# System: HBV viral production in AD38 cells
# assay-procedure: Viral load production in AD38 cells by quantitative PCR of the HBV core sequence in supernatant
# Format: cell-based
# measurement-parameters: Hepatitis B virus, 144 h; 10 μM compound, 6 days at 37° C., viral load in supernatant compared against DMSO control wells; read-out: AD38 Viral Load (CpAM/DMSO %) at 10 μM
Assign labels as follows, please: met for activity at 10 µM below 10%; not met for activity at 10 µM equal to or exceeding 10%.

Solved cases (4 shown):
{"columns": ["compound", "label"],
 "data": [
  ["CC(C)c1ncsc1CNC(=O)c1ccc2c(c1)NC(=O)c1ccccc1S2 [Compound 1614]", "met"],
  ["O=C(NCCc1cnco1)c1ccc2c(c1)NC(=O)c1cc(F)ccc1S2 [Compound 1417]", "not met"],
  ["O=C(Nc1ncc(Cl)s1)c1ccc2c(c1)NC(=O)c1cc(F)ccc1S2 [Compound 1443]", "not met"],
  ["O=C(NCCC1CCCCC1)c1ccc2c(c1)NC(=O)c1ccccc1S2 [Compound 1105]", "met"]
]}

Attention now turns to another entry.
Threshold test, activity at 10 µM < 10%: Cc1ncc(CNC(=O)c2ccc3c(c2)NC(=O)c2ccccc2S3)s1 [Compound 1588]
met
